# System: U251 CNS
# Procedure Summary: NCI-60 one-dose screen, 48 h
# Condition Summary: 10 µM unless noted
About 83,000 compounds went through this panel and 20% of them were active in at least one assay; those are over-represented in the sample as a whole. Activity calls are given as the source filed them. Rule for the calls: active = growth percent below 10; inactive = the rest.
Outcomes: True = active, False = inactive

1) O=C1NC(=O)C(=Cc2cn(Cc3cn(Cc4ccc(Cl)cc4Cl)nn3)c3ccccc23)C(=O)N1    False
2) CCCSC1=NC2C(N(CC)C(=O)N2CC)N1/N=C/C=C/c1ccccc1[N+](=O)[O-] (stereo not drawn)    False
3) CCOc1c(Br)cc(C2C(C(=O)OC)=CN(C)C=C2C(=O)OC)cc1OC    False
4) O=C(NC1CCN(Cc2ccccc2)CC1)c1cc2nc(-c3ccc(Cl)s3)cc(C(F)(F)F)n2n1    True
5) CCOc1ccc(-c2nonc2NC(=O)c2cccc(C)c2)cc1OCC    False
6) O=C(NC(=S)Nc1cccc(NC(=S)NC(=O)c2ccccc2)c1)c1ccccc1    False
7) O=C(NCCCN1CCC(N2CCCCC2)CC1)C1=Cc2cc(Br)ccc2OC1    False
8) Cn1c(/C=C(\C#N)c2ccccc2)nc2c(N3CCOCC3)nc(Cl)nc21    True
9) O=C(c1nc2ccccc2[nH]1)C1C(c2ccc([N+](=O)[O-])cc2)C2CC3CCCCC3N2[C@@]12C(=O)Nc1cc(Cl)ccc12 (stereo partly drawn)    False
10) COc1ccc2oc(=O)cc(Cn3cc(Cn4cnc5c4c(=O)n(C)c(=O)n5C)nn3)c2c1    False
11) CC(=Nc1ccccc1)C1=C(O)C(Cc2ccc(F)cc2)NC1=O (stereo not drawn)    False
12) CCOC(=O)C1=C(C)c2ccc(OC)c(OC)c2C1    False
13) O=C(NC1C(O)OC(CO)C(O)C1O)NS(=O)(=O)c1ccc(Cl)cc1 (stereo not drawn)    False
14) O=C(Nc1ccc(-c2nc3cc4ccccc4cc3[nH]2)cc1)c1cccc(Br)c1    False
15) C[n+]1c2ccccc2nc2ccc(NCCO)cc21    False
16) Cc1cccc(NC(=O)c2sc3nc4c(cc3c2N)CCCC4)c1C    False
17) O=C(Nc1ccc(F)cc1F)c1cc(I)ccc1O    True
18) COc1cc(/C=C/C(=O)c2ccc(Cl)cc2)cc(CN2CCCCC2)c1O    False
